assay: S. cerevisiae growth modulation with rapamycin, primary screen, strain BY4716, OD600, 96 h (AID 1091); details: higher = more signal, called active from +8 up or from −8 down; note: test concentration not given here
Active and inactive are the calls of the source.
Let's look at some compounds and their measured z-score.

compound=C=C(/C(=C/C[C@H](OC(C)=O)c1cccc(OCCO)c1)c1cnc2ccccc2c1)C(C)C result="1.35 (inactive)"
compound=Cc1ccc(S[C@]2(C(=O)NCCCN(C)C)CC(=O)N(C3CCCCC3)[C@@H]2c2ccc(CO)cc2)cc1 result="-0.655 (inactive)"
compound="O=C1NC(=O)C2C1C=CC(C(O)c1c(F)cccc1Cl)N2Nc1ccc(Cl)cc1Cl (centres undefined)" result="1.65 (inactive)"

Now examine the next entry.
Name the reported z-score value associated with the compound CC(C)N1CC=CC23O[C@@H]4C=CCOC(=O)[C@@H]4[C@H]2C(=O)N(CCCO)[C@@H]3C1=O (some centres undefined)
-1.58 (inactive)

====

assay: adipocyte viability effects, profiling panel, cell-based, 3T3-L1 adipocytes, calcein-AM fluorescence, 48 h, basal (AID 1163); details: 3T3-L1 adipocytes viability, higher = more signal; note: test concentration not given here
Mark fulfilled only for z-score values smaller than 0.5; exact matches and larger values are not fulfilled.

Use the examples below as a reference point.
compound=COC(=O)c1nc2oc1CC[C@@H](CO)NC(=O)N(C)Cc1cnnn1C[C@H](Cc1ccccc1)NC2=O cat=fulfilled
compound=CC(=O)NCCCC[C@@H]1NC(=O)[C@@H]2C[C@H](C(=O)NCCCC[N+](C)(C)C)[C@H](c3ccc(O)cc3)N2C1=O cat="not fulfilled"
compound="CCCCCCCCCCC(O)C1C=CC2C(=O)N(C)C(=O)C2N1NC(=O)OC(C)(C)C (stereo not drawn)" cat=fulfilled

Below 0.5 on z-score? Entry "COC(=O)[C@@]1(Cc2ccc(F)cc2)[C@H]2c3cc(C(=O)N4CCCC4)n(CCc4ccc(O)c(O)c4)c3C[C@H]2CN1C(=O)c1ccccc1"
fulfilled

Below 0.5 on z-score? Entry "C=C(C)c1cc2c(c(CCCCCC)n1)[Si](C(C)C)(C(C)C)OC2"
fulfilled

Below 0.5 on z-score? Entry "COC(=O)c1cn(C[C@@H](Cc2ccccc2)NC(=O)N[C@H](CO)CCc2oc(C(C)=O)c(C(=O)OC)c2C(=O)OC)nn1"
not fulfilled

Below 0.5 on z-score? Entry "CCCCCCc1nc(-c2cc(C)c(OC)c(C)c2)c(C)c2c1[Si](C(C)C)(C(C)C)OC2"
not fulfilled

Below 0.5 on z-score? Entry O=C1NC(=O)C2C1C=CC(C(O)CCc1ccccc1)N2Nc1ccc(Cl)cc1Cl (stereo not drawn)
fulfilled

====

test: basal 3T3-L1 adipocyte mitochondrial potential changes, profiling panel, cell-based, JC-1 fluorescence, 3T3-L1 adipocytes, 24 h, 100 nL compound (AID 1168); conditions: JC-1 mitochondrial fluorescence, higher = more signal, called active from +8 up or from −8 down; note: test concentration not given here
Let's look at some molecules and their measured z-score.
Reply: number alone, nothing else.

molecule=O=C(NCC(F)(F)F)[C@@H]1c2ccccc2C(=O)N(Cc2ccc(OC(F)(F)F)cc2)[C@H]1c1ccc(CO)cc1 readout_number=0.506
molecule="C=C(C)[C@@H]1CC=C(C(O)C2C=CC3C(=O)N(c4ccccc4)C(=O)C3N2Nc2ccccc2F)CC1 (stereo partly drawn)" readout_number=-1.74
molecule="C=CCC(OC(C)=O)[C@@H]1[C@@H](N(Cc2cccc3ccccc23)C(=O)c2cccc3ccccc23)c2cc(OCCCO)ccc2N1C(=O)c1ccc(-c2ccccc2)cc1 (stereo partly drawn)" readout_number=-0.632
molecule=C=C(C)c1cc2c(c(CCCCCC)n1)[Si](C(C)C)(C(C)C)OC2 readout_number=-0.617
molecule=COc1ccc([Si](C)(C)[C@H]2[C@H](CCO)O[C@@]3(C(=O)N(Cc4cccc(N5C(=O)COc6ccccc65)c4)c4ccccc43)[C@@H]2C)cc1 readout_number=1.93
molecule="CC(C)(C)OC(=O)CC[C@]1(C(=O)NCC(O)CO)N=C(c2ccc(OCCCO)cc2)O[C@H]1c1ccccc1 (stereo partly drawn)" readout_number=-0.24
molecule=[N-]=[N+]=NCc1ccccc1C[C@@]1(C(=O)NCc2ccccc2)N=C(c2ccc(OCCCO)cc2)O[C@@H]1c1ccccc1N=[N+]=[N-] readout_number=0.898

Now examine the next entry.
Name the reported z-score value associated with the molecule CN1C(=O)C2C=CC(C(O)COCc3ccccc3)N(N(c3ccccc3)c3ccccc3)C2C1=O (stereo not drawn)
-1.12

====

biological target: Neurogenic locus notch homolog protein 3 (Homo sapiens); test: NOTCH3 binders on small-molecule microarray, primary screen, biochemical, 635/667 nm fluorescence (AID 1096); settings: NOTCH3 binding, 635 nm fluorescence, higher = more signal
endpoint: composite z-score
Reply: number alone, nothing else.

Solved entries (count: 5):
molecule=CN(C)CCCNC(=O)[C@@]1(C)c2ccccc2C(=O)N(Cc2ccccc2)[C@H]1c1ccc(CO)cc1 readout_number=-0.652
molecule=O=C1O[C@@H](c2ccccc2)[C@@H](c2ccccc2)N2[C@@H](c3ccc(OCCO)cc3)[C@]3(C(=O)Nc4ccccc43)[C@@H](C(=O)O)[C@H]12 readout_number=-0.239
molecule=C=C[C@@H](COC(C)=O)N(C(=O)OC(C)(C)C)S(=O)(=O)c1ccc(Br)cc1 readout_number=0.782
molecule=CCOC(=O)C1=CC[C@@H](c2cccc(Cl)c2)N(S(=O)(=O)c2ccc(C)cc2)C1 readout_number=0.126
molecule=COC(=O)[C@@]1(Cc2ccccc2N=[N+]=[N-])N=C(c2ccc(OCCCO)cc2)O[C@H]1c1ccccc1N=[N+]=[N-] readout_number=0.647

// map COc1cc(OC)c(C(O)C2C=CC3C(=O)N(C)C(=O)C3N2NC(=O)OC(C)(C)C)cc1Br (configuration not stated) to recorded composite z-score (system: Neurogenic locus notch homolog protein 3 (Homo sapiens))
1.02

// map "COc1ccc([Si](C)(C)[C@H]2[C@H](CCn3cc([C@H](O)c4ccccc4)nn3)O[C@@]3(C(=O)N(Cc4ccc(N5C(=O)c6cccc7cccc5c67)cc4)c4ccccc43)[C@@H]2C)cc1" to recorded composite z-score (system: Neurogenic locus notch homolog protein 3 (Homo sapiens))
-0.0817

====

assay: small-molecule microarray binders of probe aXIP, primary screen, biochemical, NeuroSMM set, 635/667 nm fluorescence (AID 1119); details: higher = more signal, called active from +8 up or from −8 down;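 note: probe is the protein aXip251-270 applied at 1 µg/mL to compound-printed slides; binding of probe to printed compounds measured as 667 nm fluorescence plus signal to noise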
Let's look at some molecules and their measured composite Z-score.
Reply: number alone, nothing else.

Solved entries (count: 2):
smiles_repr=C=CCOC(=O)[C@H]1[C@@H]2C(=O)O[C@@H](c3ccccc3)[C@@H](c3ccccc3)N2[C@@H](c2ccc(OCCOC(=O)[C@@H]3C[C@@H]4C(=O)N5CCC[C@H]5C(=O)N4[C@@H]3c3ccc(O)cc3)cc2)[C@]12C(=O)Nc1ccc(I)cc12 readout_number=0.486
smiles_repr=CCCCO[C@H]1C[C@H]2C(I)=C[C@@H]1C(=O)[C@]21CO1 readout_number=-0.014

Now examine the next entry.
Name the reported composite Z-score value associated with the molecule "COc1ccc([Si](C)(C)[C@@H]2[C@@H](CCn3cc([C@H](O)c4ccccc4)nn3)O[C@]3(C(=O)N(Cc4ccc(N5CCC5=O)cc4)c4ccccc43)[C@H]2C)cc1"
0.811

====

Let's look at some molecules and their measured composite z-score.
tested on: Sam68 (KHDRBS1); experiment: Sam68 small-molecule binders, primary screen, biochemical, small-molecule microarray, 635 nm fluorescence (AID 1125); conditions: small-molecule microarray binding, higher = more signal;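 note: score merges 667 nm channel intensity with signal to noise over triplicate slides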
Reply: number alone, nothing else.

Solved entries (count: 3):
molecule="CC(c1ccccc1)C(O)C1C=CC2C(=O)N(c3ccccc3)C(=O)C2N1Nc1ccc([N+](=O)[O-])cc1 (centres undefined)" readout_number=1.05
molecule=C=C(/C(=C/C[C@H](OC(C)=O)c1ccccc1OCCO)c1cc(C(=O)OC)ccc1OC)C(C)C readout_number=0.527
molecule=COc1ccc([Si](C)(C)[C@@H]2[C@@H](CCO)O[C@]3(C(=O)N(Cc4ccc(N5CCCCC5=O)cc4)c4ccccc43)[C@H]2C)cc1 readout_number=1.31

Now examine the next entry.
Name the reported composite z-score value associated with the molecule "CC(C)[Si](C#CCCCC#N)(O[C@H](c1ccccc1)c1cn([C@H](CO)Cc2ccccc2)nn1)C(C)C"
1.11

====

assay: MM1S myeloma cell viability, profiling panel, resazurin fluorescence, basal, 24 h, PK04 Diversity Set (AID 1174); details: higher = more signal, called active from +8 up or from −8 down;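 note: MM1S multiple myeloma cell line; test concentration not given here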
Let's look at some molecules and their measured z-score.
Reply: number alone, nothing else.

Solved entries (count: 5):
molecule=[N-]=[N+]=Nc1ccccc1C[C@]1(C(N)=O)N=C(c2ccc(OCCCO)cc2)O[C@H]1c1ccccc1N=[N+]=[N-] readout_number=-1.55
molecule="O=C1NC(=O)C2C1C=CC(C(O)CCc1ccccc1)N2Nc1ccc(Cl)cc1Cl (stereo not given)" readout_number=-1.59
molecule="COc1cc(OC)c(C(O)C2C=CC3C(=O)N(c4ccccc4)C(=O)C3N2Nc2ccccc2)cc1Br (stereo not given)" readout_number=-1.14
molecule=NCCCCCNC(=O)[C@@H]1C[C@@H]2C(=O)NCC(=O)N2[C@@H]1c1cccc(OCCO)c1 readout_number=0.584
molecule=COCCCNC(=O)[C@@]1(Sc2ccc(C)cc2)CC(=O)N(C2CCCCC2)[C@@H]1c1ccc(CO)cc1 readout_number=0.0246

Name the reported z-score value associated with the molecule "C=C(C)c1cc2c(c(CCCCCC)n1)[Si](C(C)C)(C(C)C)OC2"
0.272

Name the reported z-score value associated with the molecule O=C1C2C=CC(C(O)c3ccccc3)N(Nc3ccccc3F)C2C(=O)N1c1ccccc1 (stereo not given)
-1.07
